The following binders are shown together with reported OD450 values.
Target: Peptide 1: Biotin-…-[Tyr(PC)]-acid
Sequence (peptide, as listed by the source): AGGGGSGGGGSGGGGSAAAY
Assay: scFv ELISA
Result type: OD450

>>> result("PcOxP_DB03_H07 (scFv, V domains shown, scFv in periplasmic extract) VH: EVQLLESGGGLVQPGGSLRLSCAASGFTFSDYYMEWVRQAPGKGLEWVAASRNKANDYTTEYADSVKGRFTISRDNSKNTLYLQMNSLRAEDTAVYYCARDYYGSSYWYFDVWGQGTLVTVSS VL: DIQMTQSPSSLSASVGDRVTITCTASESLYSSKHKVHYLAWYQQKPGKAPKLLIYGASNRDIGVPSRFSGSGSGTDFTLTISSLQPEDFATYYCGQFYSYPLTFGGGTKVEIK")
"1.91 OD450"
>>> result("PcOxP_DB01_D10 (scFv, V domains shown, scFv in periplasmic extract) VH: EVQLLESGGGLVQPGGSLRLSCAASGFTDSDFYMEWVRQAPGKGLEWVAASRNKANDYTTEYADSVKGRFTISRDNSKNTLYLQMNSLRAEDTAVYYCARDYYGSSYWYFDVWGQGTLVTVSS VL: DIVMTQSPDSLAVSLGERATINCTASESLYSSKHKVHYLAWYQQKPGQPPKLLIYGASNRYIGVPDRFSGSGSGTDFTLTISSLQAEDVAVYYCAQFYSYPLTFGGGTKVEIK")
"0.15 OD450"
>>> result("PcOxP_DB03_H08 (scFv, V domains shown, scFv in periplasmic extract) VH: EVQLLESGGGLVQPGGSLRLSCAASGGTFSDFYMEWVRQAPGKGLEWVAASRNKANTYTTEYADSVKGRFTISRDNSKNTLYLQMNSLRAEDTAVYYCARDYYGSSYWYFDVWGQGTLVTVSS VL: DIQMTQSPSSLSASVGDRVTITCTASESLYSSKHKVHYLAWYQQKPGKAPKLLIYGSSNRYIGVPSRFSGSGSGTDFTLTISSLQPEDFATYYCAQFYQYPLTFGGGTKVEIK")
"0.91 OD450"
>>> result("PcOxP_DB02_G04 (scFv, V domains shown, scFv in periplasmic extract) VH: EVQLLESGGGLVQPGGSLRLSCAASGFTFSDYYMEWVRQAPGKGLEWVAASRWKANDYTTEYADSVKGRFTISRDNSKNTLYLQMNSLRAEDTAVYYCARDYYGSSYWYFDVWGQGTLVTVSS VL: DIVMTQSPDSLAVSLGERATINCKASQSVLYSKNKKHYLAWYQQKPGQPPKLLIYGASNRQIGVPDRFSGSGSGTDFTLTISSLQAEDVAVYYCAQFYVYPLTFGGGTKVEIK")
"0.32 OD450"
>>> result("PcOxP_DB01_B01 (scFv, V domains shown, scFv in periplasmic extract) VH: EVQLLESGGGLVQPGGSLRLSCAASGFTFSDQYIEWVRQAPGKGLEWVAASRNKANDYTTEYADSVKGRFTISRDNSKNTLYLQMNSLRAEDTAVYYCARDYLGSSYWYFDVWGQGTLVTVSS VL: DIQMTQSPSSLSASVGDRVTITCTASESLYSSKHKVHYLAWYQQKPGKAPKLLIYGASHRYIGVPSRFSGSGSGTDFTLTISSLQPEDFATYYCAQFYAYPLTFGGGTKVEIK")
"0.87 OD450"

Ref: patent US20250320312A1
